Counter-ions that a name gives are not always drawn.
Could you please report measured melting point for the items listed next?

Look over these answered cases.
CCN1C(C)=C(C(=O)OC)C(c2ccc(C(F)(F)F)cc2)C(C(=O)OC)=C1C :: 135 to 137 °C
COC(=O)C1=C(C)N(C)C(CCN2CCc3ccccc3C2)=C(C(=O)OC)C1c1ccc(C(F)(F)F)cc1.O=C(O)/C=C/C(=O)O (centres unmarked) :: 186 to 188 °C

Need melting point for each of these compounds.
1. COC(=O)C1=C(C)N(C)C(C)=C(C(=O)O)C1c1ccc(C(F)(F)F)cc1 (centres unmarked)
2. COC(=O)C1=C(C)N(C)C(C#N)=C(C(=O)OC)C1c1ccc(C(F)(F)F)cc1 (centres unmarked)

// result
150 to 155 °C
129 to 132 °C

Need melting point for each of these compounds.
1. COC(=O)C1=C(CCN(C)C)N(C)C(CCN2CCOCC2)=C(C(=O)OC)C1c1ccc(C(F)(F)F)cc1 (centres unmarked) (as salt: hydrochloride) [Example 31, dihydrochloride]
2. CCOC(=O)C1=CN(C2CC2)C=C(C(=O)OCC)C1c1ccc(C(F)(F)F)cc1
3. COC(=O)C1=C(C)N(C)C(C)=C(C(=O)OC)C1c1ccccc1
4. O=C(O)C1=CN(Cc2ccccc2)C=C(C(=O)O)C1c1ccccc1

// result
247 to 248 °C
123 to 124 °C
201 to 203 °C
204 to 206 °C

----------
Counter-ions that a name gives are not always drawn.
assay-endpoint: melting point

Look over these answered cases.
COC(=O)C1=C(CCN(C)C)N(C)C(CCN2CCc3cc(OC)c(OC)cc3C2)=C(C(=O)OC)C1c1ccc(C(F)(F)F)cc1 (stereo not drawn) (as salt: hydrochloride) [Example 42, dihydrochloride] :: 210 to 211 °C
COC(=O)C1=C(CCN(C)C)N(C)C(CCN(C)C)=C(C(=O)OC)C1c1ccccc1Cl (as salt: hydrochloride) [Example 22, dihydrochloride] :: 241 to 245 °C
COC(=O)C1=C(CCN2CCCC2)N(C)C(CCN2CCCC2)=C(C(=O)OC)C1c1ccccc1Cl (as salt: hydrochloride) [Example 19, dihydrochloride] :: 188 to 193 °C
COC(=O)C1=C(C)N(C)C(CCN2CCc3cc(OC)c(OC)cc3C2)=C(C(=O)OC)C1c1ccc(C(F)(F)F)cc1.Cl (stereo not drawn) :: 176 to 181 °C
COC(=O)C1=C(C#N)N(C)C(CN2CCCC2)=C(C(=O)OC)C1c1ccc(C(F)(F)F)cc1.Cl (stereo not drawn) :: 173 to 175 °C

Now look at this entry.
// query melting point lookup needed for COC(=O)C1=C(C)N(C)C(CCN2CCOCC2)=C(C(=O)OC)C1c1ccccc1Cl.Cl (stereo not drawn) , thanks.
// result 171 to 173 °C

----------
measurement-protocol: Acute toxicity (LD50)
assay-conditions: in vivo
Structures can show the parent of a compound that is named as a salt.
assay-endpoint: LD50
In your response, the unit should come after the numeric value.

// query LD50 lookup needed for COC(=O)C1=C(CCN2CCCCC2)N(C)C(CCN2CCCCC2)=C(C(=O)OC)C1c1ccc(C(F)(F)F)cc1 [Example 17, dihydrochloride] , thanks.
// result 150 mg/kg

----------
Could you please report measured melting point for the items listed next?

Look over these answered cases.
CC1=C(C(=O)O)C(c2ccc(C(F)(F)F)cc2)C(C(=O)O)=C(C)N1C [Example 36] :: 152 to 153 °C
CCOC(=O)C1=C(C)N(C)C(C)=C(C(=O)OC)C1c1ccc(C(F)(F)F)cc1 (stereo not drawn) [Example 32] :: 146 to 149 °C
COC(=O)C1=C(C)N(C)C(CN2CCc3ccccc3C2)=C(C(=O)OC)C1c1ccc(C(F)(F)F)cc1.Cl (stereo not drawn) [Example 49] :: 175 to 177 °C

Need melting point for each of these compounds.
1. COC(=O)C1=C(C)N(C)C(C)=C(C(=O)OC)C1c1cc(F)cc(F)c1 [Example 24]
2. COC(=O)C1=C(C)N(C)C(C)=C(C(=O)OC)C1c1ccsc1 [Example 45]
3. COC(=O)C1=C(C)N(C)C(C)=C(C(=O)OC)C1c1ccc(-n2ccnc2)cc1 [Example 10]
4. COC(=O)C1=C(C#N)N(C)C(CCN(C)C)=C(C(=O)OC)C1c1ccc(C(F)(F)F)cc1.Cl (stereo not drawn)
5. COC(=O)C1=C(C)N(C)C(C)=C(C(=O)OC)C1c1ccccc1Cl [Example 18]
6. COC(=O)C1=C(C)N(C)C(CCN2CCOCC2)=C(C(=O)OC)C1c1ccc(C(F)(F)F)cc1.Cl (stereo not drawn)
7. COC(=O)C1=C(C)N(C)C(CCN(C)C)=C(C(=O)OC)C1c1cc(F)cc(F)c1.Cl (stereo not drawn) [Example 26]
8. COC(=O)C1=C(C)N(C)C(CN2CCCCC2)=C(C(=O)OC)C1c1ccc(C(F)(F)F)cc1.Cl (stereo not drawn)

// result
167 to 168 °C
187 to 189 °C
201 to 202 °C
215 to 216 °C
154 to 155 °C
188 to 193 °C
201 to 203 °C
190 to 192 °C

Need melting point for each of these compounds.
1. CCOC(=O)C1=CN(Cc2ccccc2)C=C(C(=O)OCC)C1c1ccc(C(F)(F)F)cc1 [Example 34]
2. COC(=O)C1=C(C)N(C)C(C)=C(C(=O)OC)C1c1ccco1 [Example 44]
3. COC(=O)C1=C(C)N(C)C(C)=C(C(=O)OC)C1c1cccnc1 [Example 12]

// result
["107 to 108 °C", "142 to 143 °C", "173 to 175 °C"]

----------
Counter-ions that a name gives are not always drawn.
Could you please report measured melting point for the items listed next?

Look over these answered cases.
COC(=O)C1=C(CCN2CCN(C)CC2)N(C)C(CCN2CCN(C)CC2)=C(C(=O)OC)C1c1ccccc1Cl (as salt: hydrochloride) :: 210 to 215 °C
CCOC(=O)C1=CN(C)C=C(C(=O)OCC)C1c1ccc(C(F)(F)F)cc1 [Example 37] :: 94 to 96 °C
COC(=O)C1=C(C)N(C)C(C)=C(C(=O)OC)C1c1ccc(F)cc1 [Example 2] :: 184 to 185 °C

// query melting point lookup needed for COC(=O)C1=C(CCN(C)C)N(C)C(CCN2CCCCC2)=C(C(=O)OC)C1c1ccc(C(F)(F)F)cc1 (stereo not shown) (as salt: hydrochloride) [Example 30, dihydrochloride] , thanks.
// result 247 to 249 °C
